- EXPERIMENTAL TARGET: human kappa opioid receptor (hKOR) (Homo sapiens)
- Construct: expressed in transfected cells; host or cells: HEK-293 cells, transient transfection with Fugene6
- Sequence (P41145 whole entry): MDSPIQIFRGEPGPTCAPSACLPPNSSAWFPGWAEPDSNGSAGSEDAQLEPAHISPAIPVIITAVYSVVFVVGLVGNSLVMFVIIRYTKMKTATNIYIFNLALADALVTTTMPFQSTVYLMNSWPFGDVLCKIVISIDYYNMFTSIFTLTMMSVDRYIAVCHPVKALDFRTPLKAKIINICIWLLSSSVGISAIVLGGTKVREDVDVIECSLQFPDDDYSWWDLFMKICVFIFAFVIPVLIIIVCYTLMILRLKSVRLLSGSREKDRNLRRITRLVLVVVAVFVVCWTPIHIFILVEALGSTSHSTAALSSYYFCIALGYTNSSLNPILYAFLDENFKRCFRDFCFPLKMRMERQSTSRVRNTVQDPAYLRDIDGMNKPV
- METHOD DESCRIPTION: cell-based
- EXPERIMENTAL PARAMETERS: HEK293, read-out: hKOR Efficacy(%)
Square brackets hold non-standard residues; d marks the D form. Peptide text beside a SMILES is read from it. * marks the point of attachment. Homopiperazine(4-amidino) = N=C(N)N1CCCN(*)CC1; dAgb = N=C(N)NCC[C@@H](N)C(=O)O
Threshold check on Emax: strictly below 90% is class 1; on or above 90% is class 0.

Check if Emax falls below 90% for CC(C)C[C@@H](NC(=O)[C@@H](Cc1ccccc1)NC(=O)[C@H](N)Cc1ccccc1)C(=O)N[C@H](CCCN)C(=O)N1CCNC(C(=O)O)C1 (some centres unmarked) .
class 0

In the record for CC(C)C[C@@H](NC(=O)[C@@H](Cc1ccccc1)NC(=O)[C@H](N)Cc1ccccc1)C(=O)N[C@H](CCNC(=N)N)C(=O)N1CCCN(C(=N)N)CC1 [Compound (23)] (H-[dF][dF][dL][dAgb]-{Homopiperazine(4-amidino)}) , is Emax less than 90%?
class 1

Is Emax of `CC(C)C[C@@H](NC(=O)[C@@H](Cc1ccccc1)NC(=O)[C@H](N)Cc1ccccc1)C(=O)N[C@H](CCCN)C(=O)N1CCC(N)(C(=O)O)CC1` strictly below 90%?
class 0

Could you please tell me whether Emax recorded for `CC(C)C[C@@H](NC(=O)[C@@H](Cc1ccccc1)NC(=O)[C@H](N)Cc1ccccc1)C(=O)N[C@H](CCCN)C(=O)NCCCC[C@H](NC(=O)[C@H](N)CCCN)C(=O)N1CCNCC1` is less than 90%?
class 0

* * *

For each of the compounds below, state its Emax.
- EXPERIMENTAL TARGET: mouse kappa opioid receptor (mKOR) (Mus musculus)
- Construct: Stimulation of Endogenous Mouse Kappa-Opioid Receptor in R1.G1 Cells; host or cells: R1.G1 mouse thymoma cells
- Sequence (P33534 whole entry): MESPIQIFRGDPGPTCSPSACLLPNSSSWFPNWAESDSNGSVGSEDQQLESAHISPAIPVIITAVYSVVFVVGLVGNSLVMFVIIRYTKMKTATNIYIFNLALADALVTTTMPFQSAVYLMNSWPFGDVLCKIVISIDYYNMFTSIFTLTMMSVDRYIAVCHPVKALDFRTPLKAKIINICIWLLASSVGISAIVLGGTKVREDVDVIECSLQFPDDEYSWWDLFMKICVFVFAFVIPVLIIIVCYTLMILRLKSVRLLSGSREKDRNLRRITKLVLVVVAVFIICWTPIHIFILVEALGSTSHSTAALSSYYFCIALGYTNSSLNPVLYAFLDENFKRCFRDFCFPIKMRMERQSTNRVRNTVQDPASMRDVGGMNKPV
- METHOD DESCRIPTION: cell-based
- EXPERIMENTAL PARAMETERS: read-out: mKOR Efficacy(%)
Square brackets hold non-standard residues; d marks the D form. Peptide text beside a SMILES is read from it. * marks the point of attachment. Homopiperazine(4-amidino) = N=C(N)N1CCCN(*)CC1; dAgp = N=C(N)NC[C@@H](N)C(=O)O; dNle = CCCC[C@@H](N)C(=O)O; dOrn = NCCC[C@@H](N)C(=O)O; Inp = O=C(O)C1CCNCC1
Only the number, expressed in %, is required.

Complete the entry with Emax for CC(C)C[C@@H](NC(=O)[C@@H](Cc1ccccc1)NC(=O)[C@H](N)Cc1ccccc1)C(=O)N[C@H](CCCCN)C(=O)N1CCC2(CC1)NC(=O)NC2=O [Compound (27)]
87

For CC(C)C[C@@H](NC(=O)[C@@H](Cc1ccccc1)NC(=O)[C@H](N)Cc1ccccc1)C(=O)N[C@H](CCCN)C(=O)NCCCC[C@H](NC(=O)[C@H](N)CCCN)C(=O)O [Compound (79)] , write its Emax.
101

Please list Emax recorded for the compound CC(C)C[C@@H](NC(=O)[C@@H](Cc1ccccc1)NC(=O)[C@H](N)Cc1ccccc1)C(=O)N[C@H](CCCN)C(=O)N[C@H]1CN[C@H](C(=O)O)C1 [Compound (41)]
87

Item CC(C)C[C@@H](NC(=O)[C@@H](Cc1ccccc1)NC(=O)[C@H](N)Cc1ccccc1)C(=O)N[C@H](CCCN)C(=O)N1CCC(C(=O)O)CC1 [Compound (46)] (H-[dF][dF][dL][dOrn][Inp]-OH) : provide Emax
92

Return reported Emax. Input compound: CCCC[C@@H](NC(=O)[C@@H](Cc1ccccc1)NC(=O)[C@H](N)Cc1ccccc1)C(=O)N[C@H](CNC(=N)N)C(=O)N1CCCN(C(=N)N)CC1 [Compound (19)] (H-[dF][dF][dNle][dAgp]-{Homopiperazine(4-amidino)})
99

State, in one line, measured Emax of CC(C)C[C@@H](NC(=O)[C@@H](Cc1ccccc1)NC(=O)[C@H](N)Cc1ccccc1)C(=O)N[C@H](CCCCNC(C)C)C(=O)N1CCC(N)(C(=O)O)CC1 [Compound (9)]
96

Recall and state the measured Emax for CC(C)C[C@@H](NC(=O)[C@@H](Cc1ccccc1)NC(=O)[C@H](N)Cc1ccccc1)C(=O)N[C@H](CCCN)C(=O)NCCCC[C@H](NC(=O)[C@H](N)CCCN)C(=O)N1CCNCC1 [Compound (81)] .
96

Entry CC(C)C[C@@H](NC(=O)[C@@H](Cc1ccccc1)NC(=O)[C@H](N)Cc1ccccc1)C(=O)N[C@H](CCCN)C(=O)N1CCC(N)(C(=O)O)CC1 [Compound (43)] needs its Emax filled in; supply it.
100

Dear colleague, please send me the reported Emax for CC(C)C[C@@H](NC(=O)[C@@H](Cc1ccccc1)NC(=O)[C@H](N)Cc1ccccc1)C(=O)N[C@H](CCCNC(C)C)C(=O)N1CCCNCC1 [Compound (61)] when you can.
96

Give the reported value of Emax for this record: CC(C)C[C@@H](NC(=O)[C@@H](Cc1ccccc1)NC(=O)[C@H](N)Cc1ccccc1)C(=O)N[C@H](CCCCN)C(=O)NCc1ccc2[nH]c(=O)[nH]c2c1 [Compound (74)]
87

Please report the measured Emax for CC(C)C[C@@H](NC(=O)[C@@H](Cc1ccccc1)NC(=O)[C@H](N)Cc1ccccc1)C(=O)N[C@H](CCCCN)C(=O)N1CCc2[nH]ncc2C1 [Compound (37)]
90

Write down Emax measured for item CC(C)C[C@@H](NC(=O)[C@@H](Cc1ccccc1)NC(=O)[C@H](N)Cc1ccccc1)C(=O)N[C@H](CCCCN)C(=O)N1CCN(S(C)(=O)=O)CC1 [Compound (68)]
82

Using known records, supply Emax for CC(C)C[C@@H](NC(=O)[C@@H](Cc1ccccc1)NC(=O)[C@H](N)Cc1ccccc1)C(=O)N[C@H](CCCCN)C(=O)N1CCN(S(=O)(=O)c2ccccc2)CC1 [Compound (69)]
87

Please look at this compound and report its Emax: CC(C)C[C@@H](NC(=O)[C@@H](Cc1ccccc1)NC(=O)[C@H](N)Cc1ccccc1)C(=O)N[C@H](CNC(=N)N)C(=O)N1CCCN(C(=N)N)CC1 [Compound (18)] (H-[dF][dF][dL][dAgp]-{Homopiperazine(4-amidino)})
103
